study-system: EGR1 DB_H382R (human, UniProt P18146 331-430, H382R)
procedure-text: ITC
quantity-name: pKd
Please note pKd is a logarithmic value: minus log10 of concentration in mol/L. Answer with that number alone.

Give its pKd value. Item: ZRE duplex (15-mer) (dsDNA) DNA 1: ATAGCGTGGGCGTTT DNA 2: AAACGCCCACGCTAT
5.69
